All figures here come from ChEMBL document CHEMBL1201862.

# System: HCT-116
# experimental.protocol: NCI tumour cell line growth inhibition, 48 h
The source made the active and inactive calls. Cut-off read from the data, not from the text of the source: active = GI50 up to about 1.1 µM and inactive = higher.
Possible outcomes: T for active, F for inactive

>>> category_label("O=C1/C(=C/c2ccccc2)CCCC/C1=C\\c1ccccc1")
"F"
>>> category_label("O=C1CN(c2ccccc2)C(=O)CN1CCN1CC(=O)N(c2ccccc2)CC1=O")
"F"
>>> category_label("Cc1ccc(S(=O)(=O)NC2C(=O)c3ccccc3C(=O)C2n2cnc3ccccc32)cc1 (configuration not stated)")
"F"
>>> category_label("COc1cc2nc(-c3cccs3)nc(Nc3cccc([N+](=O)[O-])c3)c2cc1OC")
"F"
>>> category_label("O=C(O)CC12C3C4C5C3C1C5C42 (configuration not stated)")
"F"
>>> category_label("Cc1ccc2c(O)cc(-c3csc4ccccc34)nc2n1")
"T"
>>> category_label("CN(CCCN(C)Cc1ccc(Cl)c(Cl)c1)CCN1CCCC1")
"F"
>>> category_label("CCCCNC(=O)C1=C(C)NC(C)=C(C(=O)NCCCC)C1")
"F"
>>> category_label("Cc1c2cccc-2c(OCCO)cc2c3ccccc3n(C)c12")
"F"
>>> category_label("COc1cc(O)c2c(c1)OCC1(Cc3cc(OC)c(OC)cc31)C2=O (configuration not stated)")
"F"
>>> category_label("Cc1ccc(/C=N/Nc2cc(C)c3cccc(C)c3n2)s1")
"F"
>>> category_label("CCOC(=O)Nc1sc2c(c1C#N)CCCC2")
"F"
>>> category_label("O=C1CCCCCCCCCCC(=O)C2CCOCCOCCOCCC1Cc1cccc(n1)C2")
"F"
>>> category_label("Clc1cc2nnn(C3CCCO3)c2cc1Cl (configuration not stated)")
"F"
>>> category_label("COc1ccc2c(c1)O[C@@H]1[C@@H](OC3OC(CO)C(O)C(O)C3O)Oc3cc(OC)c(OC)cc3[C@]1(O)C2=O (some centres not stated)")
"F"
>>> category_label("COc1ccc(C)cc1NC(=S)N/N=C/c1ccc(SC)cc1")
"F"
>>> category_label("CN(C)CCNC(=O)C(C)(C)Oc1ccc(C(=O)c2ccc(Cl)cc2)cc1Cl")
"F"
>>> category_label("Cc1ccc(S(=O)(=O)NC(=O)NC(Cc2ccc(O)cc2)C(=O)O)cc1 (configuration not stated)")
"F"
>>> category_label("C=CCC1C(O[Si](C)(C)C(C)(C)C)C(CO[Si](C)(C)C(C)(C)C)OC1n1ccc(=O)[nH]c1=O (configuration not stated)")
"T"
>>> category_label("OC1c2ccccc2CCC1CN1CCN(CCOC(c2ccc(F)cc2)c2ccc(F)cc2)CC1 (configuration not stated)")
"F"
>>> category_label("OC[C@H]1NC[C@@H](O)[C@@H](O)[C@H]1O")
"F"
>>> category_label("CC(=O)OC[C@H]1CN(OC(C)=O)C[C@@H](n2cc(C)c(=O)[nH]c2=O)O1")
"F"
